The values you see were collected from patent US7846959B2.

testedTarget: B-Raf (Homo sapiens, UniProt P15056)
Sequence (P15056 whole entry): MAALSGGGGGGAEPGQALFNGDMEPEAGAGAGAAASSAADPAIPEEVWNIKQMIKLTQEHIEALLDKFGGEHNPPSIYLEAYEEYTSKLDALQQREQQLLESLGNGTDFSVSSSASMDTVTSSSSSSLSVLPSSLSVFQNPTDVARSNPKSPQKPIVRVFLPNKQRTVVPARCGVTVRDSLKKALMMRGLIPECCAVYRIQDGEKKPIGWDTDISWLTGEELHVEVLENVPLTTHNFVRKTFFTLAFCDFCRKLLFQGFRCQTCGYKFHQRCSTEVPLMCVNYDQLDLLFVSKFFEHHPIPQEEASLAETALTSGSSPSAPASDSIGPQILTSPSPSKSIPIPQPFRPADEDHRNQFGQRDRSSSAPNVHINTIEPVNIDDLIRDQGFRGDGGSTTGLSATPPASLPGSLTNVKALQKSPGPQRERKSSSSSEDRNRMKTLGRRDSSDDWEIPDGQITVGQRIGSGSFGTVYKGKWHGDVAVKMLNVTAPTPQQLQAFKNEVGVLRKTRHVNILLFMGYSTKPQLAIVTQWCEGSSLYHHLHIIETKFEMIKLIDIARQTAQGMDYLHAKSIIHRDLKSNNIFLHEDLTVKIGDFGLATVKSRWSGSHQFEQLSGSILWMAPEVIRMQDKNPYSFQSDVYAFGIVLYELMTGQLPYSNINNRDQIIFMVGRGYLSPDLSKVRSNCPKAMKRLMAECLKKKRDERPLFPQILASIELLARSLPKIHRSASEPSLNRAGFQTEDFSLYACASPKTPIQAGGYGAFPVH
protocolNotes: Luciferase-coupled chemiluminescence kinase assay (ATP consumption), B-Raf
Assay type: biochemical
statedConditions: read-out: bRaf IC50

molecule	IC50
COC(=O)Nc1nc2cc(C3(O)c4ccccc4C(=O)N3Cc3ccccc3Cl)ccc2[nH]1 (stereo not shown)	100 to 1000 nM
COC(=O)Nc1nc2ccc(C3(O)c4ccccc4C(=O)N3Cc3ccc(F)cc3)cc2[nH]1 (stereo not shown)	100 to 1000 nM
O=C1c2ccccc2C(O)(c2ccc3[nH]ncc3c2)N1Cc1ccccc1 (stereo not shown)	100 to 1000 nM
COC(=O)Nc1nc2cc(C3(O)c4ccccc4C(=O)N3Cc3cccc(Cl)c3)ccc2[nH]1 (stereo not shown)	< 100 nM
O=C(Nc1nc2cc(C3(O)c4ccccc4C(=O)N3Cc3ccccc3)ccc2[nH]1)OCC1CC1 (stereo not shown)	< 100 nM
COC(=O)Nc1nc2cc(C(=O)c3ccccc3C(=O)OCc3ccccc3)ccc2[nH]1	100 to 1000 nM
C#Cc1cc(N2C(=O)c3ccccc3C2(O)c2ccc3[nH]c(NC(=O)OC)nc3c2)ccc1F (stereo not shown)	< 100 nM

----------
testedTarget: UniProt:P04049
Sequence (P04049 whole entry): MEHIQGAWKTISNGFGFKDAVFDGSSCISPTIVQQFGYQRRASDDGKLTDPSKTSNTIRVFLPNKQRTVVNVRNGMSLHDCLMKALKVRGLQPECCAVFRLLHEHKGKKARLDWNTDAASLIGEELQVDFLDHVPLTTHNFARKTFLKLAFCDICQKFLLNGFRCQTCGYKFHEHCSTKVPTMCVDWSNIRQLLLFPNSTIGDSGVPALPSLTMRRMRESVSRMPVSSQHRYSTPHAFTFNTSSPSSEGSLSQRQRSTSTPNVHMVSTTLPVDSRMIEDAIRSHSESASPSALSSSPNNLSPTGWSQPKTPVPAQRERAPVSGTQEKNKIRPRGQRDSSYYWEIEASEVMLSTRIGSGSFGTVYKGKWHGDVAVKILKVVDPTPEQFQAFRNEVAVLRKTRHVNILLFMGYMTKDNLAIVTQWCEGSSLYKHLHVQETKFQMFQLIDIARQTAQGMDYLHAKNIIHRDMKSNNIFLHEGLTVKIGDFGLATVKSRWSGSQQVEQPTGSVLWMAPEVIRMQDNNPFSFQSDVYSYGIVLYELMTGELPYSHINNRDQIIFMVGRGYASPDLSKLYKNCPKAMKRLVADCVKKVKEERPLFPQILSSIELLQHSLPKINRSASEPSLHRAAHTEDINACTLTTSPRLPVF
protocolNotes: Luciferase-coupled chemiluminescence kinase assay (ATP consumption), c-Raf
Type: biochemical
statedConditions: read-out: cRaf-1 IC50
pIC50: −log10 of the molar value.
pIC50 overview
observationType: pIC50

compound	testedTarget	valueReported
Nc1cc(Cl)cc(N2C(=O)c3ccccc3C2(O)c2ccc3c(c2)NC(=O)CO3)c1 (stereo not shown) [Entry 73]	UniProt:P04049	> 7.00
COC(=O)Nc1nc2cc(C3(O)c4ccccc4C(=O)N3[C@@H](C)c3ccccc3)ccc2[nH]1 (stereo partly shown) [Entry 105]	UniProt:P04049	5.00 to 6.00
C#CCCC(=O)Nc1nc2ccc(C3(O)c4ccccc4C(=O)N3Cc3ccccc3)cc2[nH]1 (stereo not shown) [Entry 253]	UniProt:P04049	> 7.00
CN(C(=O)c1ccccc1C(=O)c1ccc2c(c1)NC(=O)CO2)c1ccccc1 [Entry 91]	UniProt:P04049	≤ 5.00
CCOC(=O)c1cccc(N2C(=O)c3ccccc3C2(O)c2ccc3c(c2)NC(=O)CO3)c1 (stereo not shown) [Entry 70]	UniProt:P04049	≤ 5.00
COC(=O)Nc1nc2cc(C3(O)c4ccccc4C(=O)N3c3cc(Cl)cc(Cl)c3)ccc2[nH]1 (stereo not shown) [Entry 155]	UniProt:P04049	> 7.00
O=C1COc2ccc(C3(O)c4ccccc4C(=O)N3c3ccccc3Cl)cc2N1 (stereo not shown) [Entry 72]	UniProt:P04049	5.00 to 6.00
COc1cccc(N2C(=O)c3ccccc3C2(O)c2ccc3c(c2)NC(=O)CO3)c1 (stereo not shown) [Entry 43]	UniProt:P04049	6.00 to 7.00
COC(=O)Nc1nc2cc(C3(O)c4ccccc4C(=O)N3c3ccccc3F)ccc2[nH]1 (stereo not shown) [Entry 142]	UniProt:P04049	> 7.00
O=C1COc2ccc(C3(O)c4ccccc4C(=O)N3C3CCNCC3)cc2N1 (stereo not shown) [Entry 88]	UniProt:P04049	≤ 5.00
CS(=O)(=O)c1cccc(N2C(=O)c3ccccc3C2(O)c2ccc3c(c2)NC(=O)CO3)c1 (stereo not shown) [Entry 69]	UniProt:P04049	≤ 5.00
COC(=O)Nc1nc2cc(C3(O)c4ccccc4C(=O)N3Cc3cccs3)ccc2[nH]1 (stereo not shown) [Entry 98]	UniProt:P04049	> 7.00
O=C1COc2ccc(C3(O)c4ccccc4C(=O)N3c3cc(F)cc(F)c3)cc2N1 (stereo not shown) [Entry 68]	UniProt:P04049	5.00 to 6.00
C#CCOC(=O)Nc1nc2cc(C3(O)c4ccccc4C(=O)N3Cc3ccccc3)ccc2[nH]1 (stereo not shown) [Entry 108]	UniProt:P04049	> 7.00
COC(=O)Nc1nc2cc(C3(O)c4ccccc4C(=O)N3C(C)c3cc(C)cs3)ccc2[nH]1 (stereo not shown) [Entry 209]	UniProt:P04049	> 7.00
COC(=O)Nc1nc2cc(C3(O)c4ccccc4C(=O)N3c3ccc(Br)cc3)ccc2[nH]1 (stereo not shown) [Entry 138]	UniProt:P04049	6.00 to 7.00
COC(=O)Nc1nc2cc(C3(O)c4ccccc4C(=O)N3Cc3ccc(OC)cc3)ccc2[nH]1 (stereo not shown) [Entry 118]	UniProt:P04049	≤ 5.00
COC(=O)Nc1nc2cc(C3(O)c4ccccc4C(=O)N3c3cccc(NC(C)=O)c3)ccc2[nH]1 (stereo not shown) [Entry 231]	UniProt:P04049	> 7.00
COC(=O)Nc1nc2cc(C3(O)c4ccccc4C(=O)N3c3cccc(N(C)C)c3)ccc2[nH]1 (stereo not shown) [Entry 258]	UniProt:P04049	> 7.00
O=C1COc2ccc(C3(O)c4ccccc4C(=O)N3Cc3cccc(I)c3)cc2N1 (stereo not shown) [Entry 55]	UniProt:P04049	5.00 to 6.00
Cc1ccc(Cl)cc1N1C(=O)c2ccccc2C1(O)c1ccc2c(c1)NC(=O)CO2 (stereo not shown) [Entry 74]	UniProt:P04049	> 7.00
O=C(Nc1nc2cc(C3(O)c4ccccc4C(=O)N3Cc3ccccc3)ccc2[nH]1)OCC(O)CO (stereo not shown) [Entry 215]	UniProt:P04049	> 7.00
